Would you mind telling me the reported MIC of each entry?
Test system: Pseudomonas aeruginosa KCTC 1637
assay-details: ≥ marks a high value that may be exact or a test limit, other limits are often not marked, values filed in µg/mL are converted to µM

Here are 6 compounds together with their reported answers.
CC[C@H](C)[C@H](NC(=O)[C@H](CCCCN)NC(=O)[C@H](CCCCN)NC(=O)[C@H](Cc1ccccc1)NC(=O)[C@@H](N)Cc1c[nH]c2ccccc12)C(=O)N1CCC[C@H]1C(=O)N[C@@H](CCCCN)C(=O)N[C@@H](Cc1ccccc1)C(=O)N[C@@H](CC(C)C)C(=O)N[C@@H](Cc1cnc[nH]1)C(=O)N[C@@H](CC(C)C)C(=O)N[C@@H](CC(C)C)C(=O)N[C@@H](CCCCN)C(=O)N[C@@H](CCCCN)C(=O)N[C@@H](Cc1ccccc1)C(N)=O: 1.56 µM
NC(=O)[C@H](CCCN=C(N)N)NC(=O)[C@H](Cc1c[nH]c2ccccc12)NC(=O)[C@H](CCCN=C(N)N)NC(=O)[C@@H](N)Cc1c[nH]c2ccccc12: ≥ 45.5 µM
CC[C@H](C)[C@H](NC(=O)[C@H](CCCCN)NC(=O)[C@H](CC(C)C)NC(=O)[C@H](CC(C)C)NC(=O)[C@@H](N)CCCCN)C(=O)N[C@@H](Cc1c[nH]c2ccccc12)C(=O)N[C@@H](Cc1c[nH]c2ccccc12)C(=O)N[C@H](C(=O)N[C@@H](CCCCN)C(=O)N[C@H](C(=O)N[C@@H](CC(C)C)C(=O)N[C@@H](CCCCN)C(N)=O)C(C)C)[C@@H](C)CC: 3.99 µM
CC[C@H](C)[C@H](N)C(=O)N[C@@H](CC(C)C)C(=O)NCC(=O)N[C@@H](CCCCN)C(=O)N[C@H](C(=O)N[C@@H](Cc1c[nH]c2ccccc12)C(=O)N[C@@H](CCC(=O)O)C(=O)NCC(=O)N[C@H](C(=O)N[C@@H](CCCCN)C(=O)N[C@@H](CO)C(=O)N[C@@H](CC(C)C)C(=O)N[C@@H](Cc1ccccc1)C(N)=O)[C@@H](C)CC)[C@@H](C)CC: 2 µM
CC[C@H](C)[C@H](N)C(=O)N[C@@H](CC(C)C)C(=O)N1CCC[C@H]1C(=O)N[C@@H](Cc1c[nH]c2ccccc12)C(=O)N[C@@H](CCCCN)C(=O)N[C@@H](Cc1c[nH]c2ccccc12)C(=O)N[C@@H](CCCCN)C(=O)N[C@@H](Cc1c[nH]c2ccccc12)C(=O)N[C@@H](Cc1c[nH]c2ccccc12)C(=O)N[C@@H](CCCCN)C(=O)N[C@@H](Cc1c[nH]c2ccccc12)C(=O)N[C@@H](CCCN=C(N)N)C(=O)N[C@@H](CCCN=C(N)N)C(N)=O: 5.08 µM
CC[C@H](C)[C@H](NC(=O)[C@H](CCCN=C(N)N)NC(=O)[C@H](CC(C)C)NC(=O)[C@H](CCC(N)=O)NC(=O)[C@H](CCCCN)NC(=O)[C@H](CC(C)C)NC(=O)[C@H](CC(C)C)NC(=O)[C@H](CC(C)C)NC(=O)[C@@H](NC(=O)[C@H](CCCCN)NC(=O)[C@H](CC(=O)O)NC(=O)[C@H](C)NC(=O)[C@@H](NC(=O)[C@H](CCCCN)NC(=O)[C@@H](N)CCCCN)C(C)C)C(C)C)C(=O)N[C@@H](CCSC)C(=O)N[C@@H](CCCN=C(N)N)C(=O)N[C@@H](CC(C)C)C(=O)O: ≥ 32 µM

Now look at this one.
Prompt line: // MIC lookup, key: CC[C@H](C)[C@H](NC(=O)[C@H](CCCCN)NC(=O)[C@H](CCCCN)NC(=O)[C@H](CC(C)C)NC(=O)[C@H](CCCCN)NC(=O)[C@H](CCC(=O)O)NC(=O)CN)C(=O)NCC(=O)N[C@@H](CCC(N)=O)C(=O)N[C@@H](CCCCN)C(=O)N[C@H](C(=O)N[C@@H](CCCCN)C(=O)N[C@@H](CCCCN)C(=O)N[C@@H](Cc1ccccc1)C(=O)N[C@@H](Cc1ccccc1)C(=O)N[C@@H](CCC(N)=O)C(=O)N[C@@H](CCCCN)C(=O)N[C@@H](CC(C)C)C(=O)O)[C@@H](C)CC
Response line: 6.25 µM

* * *

Measured MIC on Staphylococcus aureus ATCC 25923 follows.
Answers are plain numbers, in µM.

CC[C@H](C)[C@H](NC(=O)[C@H](CO)NC(=O)[C@H](C)NC(=O)[C@@H](NC(=O)CNC(=O)[C@H](CO)NC(=O)[C@@H](NC(=O)[C@@H](NC(=O)[C@H](Cc1cnc[nH]1)NC(=O)[C@@H]1CCCN1C(=O)[C@@H](NC(=O)[C@H](CC(C)C)NC(=O)[C@H](CO)NC(=O)[C@H](CC(C)C)NC(=O)[C@@H](N)Cc1ccccc1)[C@@H](C)CC)[C@@H](C)CC)C(C)C)C(C)C)C(=O)N[C@@H](C)C(=O)N[C@@H](CCCCN)C(=O)N[C@@H](Cc1cnc[nH]1)C(=O)N[C@@H](Cc1ccccc1)C(N)=O: 6.25

Now look at this one.
Prompt line: // MIC lookup, key: CC[C@H](C)[C@H](NC(=O)[C@H](Cc1c[nH]c2ccccc12)NC(=O)[C@H](CCCCN)NC(=O)[C@H](CC(C)C)NC(=O)[C@@H](NC(=O)[C@H](CCCCN)NC(=O)CNC(=O)[C@@H](NC(=O)[C@H](CCCCN)NC(=O)[C@H](CCCCN)NC(=O)[C@H](CC(C)C)NC(=O)[C@@H](N)CCCN=C(N)N)[C@@H](C)CC)C(C)C)C(N)=O
Response line: 128

* * *

Tested on: Pseudomonas aeruginosa ATCC 27853
assay-details: ≥ marks a high value that may be exact or a test limit, other limits are often not marked, values filed in µg/mL are converted to µM
parameter: log10(MIC) (log10 of the value in µM)
Hello, just confirming the data are log10 of MIC with units of µM.

Here are 4 compounds together with their reported answers.
CC[C@H](C)[C@H](NC(=O)[C@H](CC(C)C)NC(=O)CNC(=O)[C@H](CCCCN)NC(=O)[C@@H](NC(=O)[C@H](CC(C)C)NC(=O)[C@H](CCCCN)NC(=O)[C@@H]1CCCN1C(=O)[C@@H](NC(=O)[C@H](CC(C)C)NC(=O)[C@H](CCCCN)NC(=O)[C@H](Cc1ccccc1)NC(=O)[C@@H](N)Cc1ccccc1)[C@@H](C)CC)C(C)C)C(=O)N[C@@H](CO)C(=O)N[C@@H](C)C(=O)N[C@@H](Cc1ccccc1)C(=O)N[C@@H](CCCCN)C(N)=O [FFKLIPKLVKGLISAFK]: 0.07
CC[C@H](C)[C@H](NC(=O)CN)C(=O)N[C@@H](CCSC)C(=O)N[C@@H](CO)C(=O)N[C@@H](CO)C(=O)N[C@@H](CC(C)C)C(=O)N[C@@H](CCSC)C(=O)N[C@@H](CCCCN)C(=O)N[C@@H](CCCCN)C(=O)N[C@@H](CC(C)C)C(=O)N[C@@H](C)C(=O)N[C@@H](CCCCN)C(=O)N[C@H](C(=O)N[C@H](C(=O)N[C@@H](CCCCN)C(=O)N[C@@H](CCCCN)C(N)=O)[C@@H](C)CC)[C@@H](C)CC [GIMSSLMKKLAKIIKK]: 0.72
CC[C@H](C)[C@H](NC(=O)[C@@H](NC(=O)[C@H](CCCN=C(N)N)NC(=O)[C@H](C)NC(=O)[C@H](CC(C)C)NC(=O)[C@H](CCCCN)NC(=O)[C@H](CCCN=C(N)N)NC(=O)[C@H](C)NC(=O)[C@H](CC(C)C)NC(=O)[C@H](CCCN=C(N)N)NC(=O)CNC(=O)[C@H](Cc1ccccc1)NC(=O)[C@H](CCCCN)NC(=O)[C@H](CO)NC(=O)[C@H](CC(C)C)NC(=O)[C@H](CC(C)C)NC(=O)CN)C(C)C)C(=O)N1CCC[C@H]1C(=O)N[C@@H](CCCCN)C(=O)N[C@H](C(N)=O)C(C)C [GLLSKFGRLARKLARVIPKV]: 0.60
CC[C@H](C)[C@H](NC(=O)[C@H](CCCN=C(N)N)NC(=O)CNC(=O)[C@H](CC(C)C)NC(=O)[C@H](Cc1ccccc1)NC(=O)[C@H](CCCCN)NC(=O)[C@H](CO)NC(=O)[C@H](Cc1ccccc1)NC(=O)[C@H](Cc1c[nH]c2ccccc12)NC(=O)[C@H](CCCN=C(N)N)NC(=O)[C@@H](NC(=O)[C@@H](N)Cc1ccccc1)C(C)C)C(=O)N[C@@H](CC(C)C)C(N)=O [FVRWFSKFLGRIL]: 1.38

Now look at this one.
Prompt line: // log10(MIC) lookup, key: NC(=O)[C@H](CCCN=C(N)N)NC(=O)[C@H](Cc1c[nH]c2ccccc12)NC(=O)[C@H](Cc1c[nH]c2ccccc12)NC(=O)[C@H](CCCN=C(N)N)NC(=O)[C@H](Cc1c[nH]c2ccccc12)NC(=O)[C@H](Cc1c[nH]c2ccccc12)NC(=O)[C@H](CCCN=C(N)N)NC(=O)[C@@H](N)CCCN=C(N)N [RRWWRWWR]
Response line: 0.56
